- assayedTarget: T1, PUF4 RNA-binding domain (Saccharomyces cerevisiae, UniProt P25339 537-888)
- T1 sequence: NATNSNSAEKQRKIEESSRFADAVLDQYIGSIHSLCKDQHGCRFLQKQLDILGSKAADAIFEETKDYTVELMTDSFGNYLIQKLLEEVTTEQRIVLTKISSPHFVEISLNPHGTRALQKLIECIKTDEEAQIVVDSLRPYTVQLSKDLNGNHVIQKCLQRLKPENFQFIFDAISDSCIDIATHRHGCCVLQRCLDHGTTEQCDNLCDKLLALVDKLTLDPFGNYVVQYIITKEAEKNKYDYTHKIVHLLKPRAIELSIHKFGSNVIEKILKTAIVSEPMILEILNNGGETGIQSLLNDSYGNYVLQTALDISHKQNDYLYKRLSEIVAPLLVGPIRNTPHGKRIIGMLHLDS
- measurementDescription: Mg; RNA-MaP; 20 mM Na-HEPES pH 7.4, 30 mM KOAc, 0.75 mM MgCl2, 0.1% Tween-20, 5% glycerol, 0.1 mg/mL BSA, 2 mM DTT; 25 C; 0.0125-409.6 nM protein
- conditionsUsed: tags: N-His6-TEV cleaved; C-SNAP kept, Cy3B-labelled; label: tethered on chip by stalled RNA polymerase
Kd values for the binders below.
Output spec: scalar in nM, unitless text.

binder	measurementType	experimentalResult
Ic_S4_P3E.1_K3.1_C3.1_H3.1_A3.1_[T5C]_[A6T]_F3.1_[A8T]_T3.1 (ssRNA) RNA: UUUGACAACUGAUCGUUCUUUCUUGUACUUUUUCUUUCUCGAUCAGUUGUCUUU	Kd	10.1

Could you share which Kd value was measured for ACAAACUUUAUAUUAUUACGACAAAC (ssRNA) [Id_ii_S3_P5E.3_K5.2_C5.2_[C-2T]_H5.2_A5.1_F5.1_T5.2_[T11C]_[A12G]] ?
381

Same for Ic_S4_P5E.1_K5.1_C5.1_H5.1_A5.1_[T5G]_[T6C]_[A7T]_F5.1_[T9A]_[A10C]_T5.1 (ssRNA) RNA: UUUGACAACUGAUCGUUCUUUCUUGUAGCUUACUUCUUUCUCGAUCAGUUGUCUUU
24.4
